System: E. coli TOP10
Method summary: MIC determination by Etest, host strain
Assay type: cell-based
Experimental setup: E. coli TOP10 (host without FRI-1); Etest on Mueller-Hinton agar, 37° C.; clav = clavulanic acid, fixed 4 ug/ml
Outcome measure: MIC values (mg/L)
Enter your answer as a number in mg/L; do not include the unit.

Any idea what its MIC values is? The compound is CC(C)(O/N=C(\C(=O)N[C@@H]1C(=O)N2C(C(=O)[O-])=C(C[n+]3ccccc3)CS[C@H]12)c1csc(N)n1)C(=O)O 0.2

Any idea what its MIC values is? The compound is C[C@@H](O)[C@H]1C(=O)N2C(C(=O)O)=C(SCCN=CN)C[C@H]12 0.2

Any idea what its MIC values is? The compound is CO/N=C(\C(=O)N[C@@H]1C(=O)N2C(C(=O)O)=C(COC(C)=O)CS[C@H]12)c1csc(N)n1 0.05

Any idea what its MIC values is? The compound is CO/N=C(\C(=O)N[C@@H]1C(=O)N2C(C(=O)[O-])=C(C[n+]3cccc4c3CCC4)CS[C@H]12)c1csc(N)n1 0.05

Any idea what its MIC values is? The compound is C[C@@H](O)[C@H]1C(=O)N2C(C(=O)O)=C(S[C@@H]3CN[C@H](C(=O)N(C)C)C3)[C@H](C)[C@H]12 0.02

Any idea what its MIC values is? The compound is C[C@@H](O)[C@H]1C(=O)N2C(C(=O)O)=C(S[C@@H]3CN[C@H](C(=O)Nc4cccc(C(=O)O)c4)C3)[C@H](C)[C@H]12 0.006
